- assay.info: protease stability score; higher = more stable; yeast display proteolysis, trypsin and chymotrypsin;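 further: log10 excess protease needed over predicted unfolded state with 0 meaning unfolded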
experimental.endpoint: protease stability score
A bare number is all that is needed in reply.

>  <record.sequence>
DQKKQQEVLEQWSKNDPRDLRKQADKDVRVQIGDTTYHGREDAQDALYTLAKRVDHFKYQHIETEGDHIRVDLVVNVNGREYQLTFEAQFHNGRLKTLEMQVRDEDQHKRLQEQLD

>  <measured.number>
-0.22

$$$$
>  <record.sequence>
DEEKVKEIAKNFADAMRNGDPDQASKLLDPNAKIHVGEFNYKGREAANRMAKTMRDQFDHLDIKSIEVSGNSIKIEAQLHYNGQTIDIELFITVHNGHIESVTLHYRNEEDEEKLQS

>  <measured.number>
1.08

$$$$
>  <record.sequence>
DEKEHEDVAQEAVHAVQSGDPKQMVEMADPNARVVVGDKTLHGHDRIEEMVKHLRKRADHVRIIDVQVQGDKVVIRFQVVVDGRTYDVYIDLRVHNGEAKEIRFDPRRQKEMHG

>  <measured.number>
0.758

$$$$
>  <record.sequence>
DETATEAAQRMMDNWRTNSPEDYAKLADKNVEVRVGDKTYTGRDELRSRLQRKREEQHIDLRTYHFRVNGDEVTVRARYIENHNGRPQHKVVRFVFRLHNGRVKEIERHDDS

>  <measured.number>
0.22

$$$$

Entry DEEQMDRFKDLKHALDEGDEDRLKNLVDPNARMRYGDKEVTGMEDIARQQVQRVNEINVEVDRMHVQVHNGTLEIHATVTENHNGKPKKYTFRATARAENGRFVHRVQETRG : reported protease stability score = ? -0.101

Entry DDKDVEKAVRVMQTNDPDKYERMLDEDVSMVVGDQTYHGRETVNKVYKHYLERVDHIKITRYTIRNGVATVRYVVEWNGKSADVVVHVEVHNGRAKRFEYDVRDSEDKKNMEEMIK : reported protease stability score = ? 0.358

Entry DPKKAFKVAEEAMKYFVKGNVDELKKILNPDGTARVADHETKGVEEIMKLLQRMKKHGVQVEVKEVRREGNQVEVHTVYHDGDETATLTVQYKAQNGKVDHIKVQYNERMKKIWEKG : reported protease stability score = ? 1.2

Entry DEVTRAEELLHEIQEAFRTGDEDQARRLADENVQIHVGDKFVRGRRDYVKRLKDEVDRVDHMEVHIKSVDVHGDKATMDYRVRVQFDGQSKERDVVMYAKISNGQLKVTSLTEK : reported protease stability score = ? 0.012

Entry DDDNVRKMNEMFNALETGDEHKLKKQFDPNAHIRIGDQTYHGMDDYARKFRHKRNNMRQSYESYTITNEGDKVTIEATFSRRHNGTPERKKVVVEVDIRGDQAKSATVQDDR : reported protease stability score = ? 0.032

Entry DEHKIATKQMEEFTEAMKRGDEDRMKSNADENVRIEVGDKEVHGQNQFKQTVANILKRVDHIRIKLRDWRNHNGRVDLVYQVNFDHNGRHKNDKYTVRMRIQGDKAKIEHVKAP : reported protease stability score = ? 0.349

Entry DKNNLKRYDKLLKILQTGDEHKAKKLADPNVKVKVGDKEIKGWDRFVHESAKRWREARIELKIKHVDVSGDKVTIDYEAEVEVNGKPIRYTATFRFVVHNGRIKTINFSMDENQRETVKR : reported protease stability score = ? 0.007

Entry DKEEVHKLKHLLRHGDFEKINKKADKDARMQIGDRVYHGREKMKKALEILQREVDDIRVDSIKVSGDRVSAEMHMEVNGRRYVFVVVIRATNGRVVSLKVKARSESQDEHLKNLVE : reported protease stability score = ? 0.625

Entry DEEDLRTRASEFNKVLENNDPDRLNKLADKDATANYGDHEYHGREDIHHMAETMVRQVDRIEIKHVQARNGRVKVDLIMRVNGKEVKVDVTMEFHNGHLKLVTFDPDQVRKVEG : reported protease stability score = ? 0.673

Entry DEKKLHELLLKMVQYYVSGHTEKVKEMGKDDVNLNAGDYTYHGVEQVATVADRMRQYGVKLEVKNRRQEGDRLEVEVEFHVGGQTVTVTFKVKADGGKVDEMRIDFSEEADKMARKG : reported protease stability score = ? -0.157

Entry DNEKVARNAADKLMTAINTGDPDQFVKLFDENAHVDVGDKTWRGRDKLKEWARKIVEQVDHLRARVTHMDVDGDKASVVFVVTLNKNGKEHSEQHEATAEVSGEQAVFKSLRHK : reported protease stability score = ? 1.38

Entry DDDSQNEFLQRVAEAIVTGDEKSLVRMMDPNARANVGDKQFHGREQMARWARELRERVDHLQVDDLQNHNGRLHMDIQFKDNGKNKHFIIQVEAHNGKVTKMSADEK : reported protease stability score = ? 1.36

Data origin: the NTF2 design screens of Basanta et al. (2020)
